Below: a set of entries, each annotated with reported log10(MIC).
Test system: Staphylococcus aureus
PROCEDURE_DETAILS: Antibacterial activity against Staphylococcus aureus ATCC 25923 after 24 hrs by spectrophotometric analysis
Assay type: functional, organism-based
TEST_CONTEXT: Staphylococcus aureus, ATCC 25923, 24 h
Give log10 of MIC, with MIC taken in µg/mL.

As a guide, the following entries are already answered.
{"columns": ["COMPOUND", "log10(MIC)"],
 "data": [
  ["O=C(O)c1cn(Cc2ccc(C(F)(F)F)cc2)c2cc(N3CCN(C(c4ccncc4)c4nnnn4C4CCCCC4)CC3)c(F)cc2c1=O (centres undefined)", 1.70],
  ["CCn1cc(C(=O)O)c(=O)c2cc(F)c(N3CCN(C(c4ccc(C(C)C)cc4)c4nnnn4C4CCCCC4)CC3)cc21 (centres undefined)", 1.28],
  ["O=C(O)c1cn(Cc2ccc(C(F)(F)F)cc2)c2cc(N3CCN(C(c4ccco4)c4nnnn4C4CCCCC4)CC3)c(F)cc2c1=O (centres undefined)", -0.28],
  ["CC(C)(C)n1nnnc1C(c1ccco1)N1CCN(c2cc3c(cc2F)c(=O)c(C(=O)O)cn3Cc2ccc(C(F)(F)F)cc2)CC1 (centres undefined)", 1.70],
  ["CCn1cc(C(=O)O)c(=O)c2cc(F)c(N3CCN(C(c4ccc(F)cc4)c4nnnn4C(C)(C)C)CC3)cc21 (centres undefined)", -0.05]
]}

// query Fill blank: measured log10(MIC) of the compound CC(C)(C)n1nnnc1C(c1ccc(F)cc1)N1CCN(c2cc3c(cc2F)c(=O)c(C(=O)O)cn3Cc2ccc(C(F)(F)F)cc2)CC1 (centres undefined) is ____.
// result 0.49

// query Fill blank: measured log10(MIC) of the compound CCn1cc(C(=O)O)c(=O)c2cc(F)c(N3CCN(C(c4ccccc4)c4nnnn4C4CCCCC4)CC3)cc21 (centres undefined) is ____.
// result -0.10

// query Fill blank: measured log10(MIC) of the compound CCn1cc(C(=O)O)c(=O)c2cc(F)c(N3CCN(C(c4ccc(OC)c(OC)c4OC)c4nnnn4C(C)(C)C)CC3)cc21 (centres undefined) is ____.
// result -0.09

// query Fill blank: measured log10(MIC) of the compound CC(C)c1ccc(C(c2nnnn2C(C)(C)C)N2CCN(c3cc4c(cc3F)c(=O)c(C(=O)O)cn4Cc3ccc(C(F)(F)F)cc3)CC2)cc1 (centres undefined) is ____.
// result 0.49

// query Fill blank: measured log10(MIC) of the compound CCn1cc(C(=O)O)c(=O)c2cc(F)c(N3CCN(C(c4ccc(OC)c5ccccc45)c4nnnn4C4CCCCC4)CC3)cc21 (centres undefined) is ____.
// result 0.64

// query Fill blank: measured log10(MIC) of the compound CCn1cc(C(=O)O)c(=O)c2cc(F)c(N3CCN(C(c4ccccc4)c4nnnn4C(C)(C)C)CC3)cc21 (centres undefined) is ____.
// result -0.42

---

Below: a set of entries, each annotated with reported IC50.
System: Staphylococcus aureus
PROCEDURE_DETAILS: Antibacterial activity against gentamicin-resistant Staphylococcus aureus ATCC 33592 after 24 hrs by spectrophotometric analysis
Type: functional, organism-based
TEST_CONTEXT: Staphylococcus aureus, ATCC 33592, 24 h; read-out: IC50
Numeric only. Scale: µg/mL

// query # query: IC50 | item CC(C)(C)n1nnnc1C(c1ccc(F)cc1)N1CCN(c2cc3c(cc2F)c(=O)c(C(=O)O)cn3Cc2ccc(C(F)(F)F)cc2)CC1 (centres undefined) | system: Staphylococcus aureus
// result 0.5

// query # query: IC50 | item O=C(O)c1cn(Cc2ccc(C(F)(F)F)cc2)c2cc(N3CCN(C(c4ccncc4)c4nnnn4C4CCCCC4)CC3)c(F)cc2c1=O (centres undefined) | system: Staphylococcus aureus
// result 50

// query # query: IC50 | item CCn1cc(C(=O)O)c(=O)c2cc(F)c(N3CCN(C(c4ccc(OC)c(OC)c4OC)c4nnnn4C4CCCCC4)CC3)cc21 (centres undefined) | system: Staphylococcus aureus
// result 0.7
